Exercise: for every item that follows, state its recorded inhibition at 50 ppm.
Test system: fungal inoculum
METHOD_SUMMARY: organism not typed
Assay type: cell-based
TEST_PARAMETERS: read-out: % growth inhibition
Answers are plain numbers, in %.

# map each compound to its inhibition at 50 ppm
1. CC#CCN1N=C(c2ccccc2)CC(c2ccccc2)C1=O (stereo not drawn) [Compound 30]
2. O=C1CCC(c2ccc(Cl)cc2)=NN1CC#CCCO [Compound 50]
3. CC#CCN1N=C(c2ccc(Cl)cc2)CC(C)C1=O (stereo not drawn) [Compound 27]
4. O=C1CCC(c2ccc(Cl)cc2)=NN1CC1CC1 [Compound 25]

A.
1. 41.2
2. 100
3. 100
4. 100

Hello, I would appreciate it if you could give inhibition at 50 ppm for each entry below.
1. CC(C)(C)N1N=C(c2ccc(Cl)cc2)CCC1=O [Compound 15]
2. O=C1CCC(c2ccc(Cl)cc2)=NN1C(=O)c1ccccc1 [Compound 16]
3. CC#CCN1N=C(c2cccc3ccccc23)CCC1=O [Compound 134]
4. CC(=O)OC(C)C#CCN1N=C(c2ccc(Cl)cc2)CCC1=O (stereo not drawn) [Compound 49]
5. C=C=CN1N=C(c2ccc(Cl)cc2)CCC1=O [Compound 52]

A.
[37.1, 12.7, 66.5, 100, 93.7]
